- tested-on: Btk (Homo sapiens, UniProt Q06187)
- Construct: purified from insect cells as a full-length construct containing a N-terminal 6X-His tag; His6 (N); made in house; host or cells: insect cells (Method C)
- Sequence (Q06187 whole entry): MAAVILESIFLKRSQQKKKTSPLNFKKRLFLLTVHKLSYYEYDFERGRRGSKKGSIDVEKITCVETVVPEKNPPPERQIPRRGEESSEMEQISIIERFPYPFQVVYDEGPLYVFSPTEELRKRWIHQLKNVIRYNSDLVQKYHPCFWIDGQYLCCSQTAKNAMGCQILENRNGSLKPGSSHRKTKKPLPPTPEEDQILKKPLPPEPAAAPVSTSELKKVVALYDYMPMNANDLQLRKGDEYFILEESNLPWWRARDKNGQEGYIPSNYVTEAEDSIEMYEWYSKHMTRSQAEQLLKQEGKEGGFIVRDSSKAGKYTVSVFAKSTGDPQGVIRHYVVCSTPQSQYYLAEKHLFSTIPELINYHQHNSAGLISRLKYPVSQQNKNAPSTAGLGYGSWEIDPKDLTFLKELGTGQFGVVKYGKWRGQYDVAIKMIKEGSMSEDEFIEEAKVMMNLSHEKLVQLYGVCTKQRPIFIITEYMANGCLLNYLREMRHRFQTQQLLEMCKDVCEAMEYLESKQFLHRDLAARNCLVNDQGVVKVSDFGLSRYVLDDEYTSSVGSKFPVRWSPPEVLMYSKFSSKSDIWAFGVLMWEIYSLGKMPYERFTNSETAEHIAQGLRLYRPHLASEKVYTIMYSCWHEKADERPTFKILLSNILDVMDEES
- run-description: Btk in vitro inhibitory activity (one of Method A TR-FRET, Method B electrophoretic mobility shift, Method C radiometric filter binding)
- Type: biochemical
- condition-label: wild-type Btk; read-out: Btk-WT IC50
property: pIC50
For clarity, pIC50 is expressed as the negative log10 of concentration in mol/L.

>>> observed_value("C[C@H]1CC[C@@H](Nc2n[nH]c3nccc(-c4ccc(CNC(=O)c5noc(C(C)(C)C)n5)c(F)c4)c23)CN1C(=O)N1CCOCC1")
9.39
>>> observed_value("C=CC(=O)N1CC[C@@H](Nc2n[nH]c3nccc(-c4ccc(CNC(=O)c5ccn(C(C)(C)C)n5)c(F)c4)c23)C1")
9.38
>>> observed_value("C=CC(=O)N1CC[C@@H](Nc2n[nH]c3nccc(-c4ccc(C5(NC(=O)c6nc(C(C)(C)C)no6)CC5)cc4)c23)C1")
9.62
>>> observed_value("C[C@@H](NC(=O)c1nc(C(C)(C)C)no1)c1ccc(-c2ccnc3[nH]nc(NC4CCN(S(C)(=O)=O)CC4)c23)cc1")
7.56
>>> observed_value("C=CC(=O)N1CC[C@H](Nc2n[nH]c3nccc(-c4ccc(CNC(=O)c5ccc(C(C)(C)C)cc5)c(F)c4)c23)C1")
7.17
>>> observed_value("CC(C)c1nc(C(=O)NCc2ccc(-c3ccnc4[nH]nc(N5CC[C@@H](N)C5)c34)cc2F)co1")
7.51
>>> observed_value("C=CC(=O)N1C[C@H](Nc2n[nH]c3nccc(-c4ccc(CNC(=O)c5cc(C(C)(C)C)on5)c(F)c4)c23)CC[C@@H]1C")
9.69
>>> observed_value("C[C@@H](NC(=O)c1cc(C(C)(C)O)on1)c1ccc(-c2ccnc3[nH]nc(N4CCS(=O)(=O)CC4)c23)cc1")
7.03
>>> observed_value("C=CC(=O)N1CC[C@@H](Nc2n[nH]c3nccc(-c4cccc(NC(=O)c5noc(C(C)(C)C)n5)c4)c23)C1")
6.70
>>> observed_value("CC1(C(=O)N2CC[C@H](Nc3n[nH]c4nccc(-c5ccc(CNC(=O)c6noc(C(C)(C)C)n6)c(F)c5)c34)C2)COC1")
7.60

Quick check: pIC50 of C=CC(=O)N[C@@H]1CCN(c2n[nH]c3nccc(-c4ccc([C@@H](C)NC(=O)c5cc(C(C)(C)O)on5)c(F)c4)c23)C1 ?
9.61

Suppose we examine the compound CC(C)(C)c1ccc(C(=O)NCc2ccc(-c3ccnc4[nH]nc(N5CC[C@@H](N)C5)c34)cc2F)cc1 ; what pIC50 value has been reported?
7.86

pIC50 for C=CC(=O)N1CC[C@@H](Nc2n[nH]c3nccc(-c4ccc(CNC(=O)c5cn6ccccc6n5)c(F)c4)c23)C1 ?
7.39

Entry under review: C=CC(=O)N1CCC(Nc2n[nH]c3nccc(-c4ccc(CNCc5noc(C(C)(C)C)n5)c(F)c4)c23)C1 (centres unmarked) . Reported pIC50?
6.97

Data request, read-out pIC50, for CC(=O)OCC(=O)N1C[C@H](Nc2n[nH]c3nccc(-c4ccc(CNC(=O)c5nc(C(C)(C)C)no5)c(F)c4)c23)CC[C@@H]1C
9.04

Which measured pIC50 value corresponds to CC(=O)N[C@@H]1CCN(c2n[nH]c3nccc(-c4ccc(CNC(=O)c5nc(C(C)C)no5)c(F)c4)c23)C1 ?
8.37

Return reported pIC50; argument: C[C@@H](NC(=O)c1noc(C(C)(C)C)n1)c1ccc(-c2ccnc3[nH]nc(C4=CCCN(C(=O)N(C)C)C4)c23)cc1
7.39
